Provide the recorded EC50 for the entries that follow.
Molecular target: LHRH binding sites on EFO-27 human ovarian cancer cells (human)
Experiment: competition with [125I-Tyr8]BRU-2477 on EFO-27 cells
Non-standard residues stand in square brackets, D forms with d. Primed or numbered codes have the meaning given here. DO3A10CM″ = chelating group at the N-terminus (X in the sequence tables); Bpa = N[C@@H](Cc1ccc(C(=O)c2ccccc2)cc1)C(=O)O; DO3A10CM = not defined here; Iegly = not defined here; azaGly = NNC(=O)O; Sar = CNCC(=O)O

Ask | Please report the measured EC50 for DO3A10CM-G[Iegly]HWSHRW[Bpa]P[azaGly]-NH2 (not fully specified (residue 7); reading uncertain; also: AA6 Darg prints R) [BRU-2879]
Reply | 1.03 µM

Ask | Please report EC50 for the following binder: XHWSHXWXPX (DO3A10CM on N-terminus; AA1 Sar; AA6 Darg; AA8 Pal3; AA10 azaGly-NH2) [BRU-2726]
Reply | 17.4 µM

Ask | Complete the entry with EC50 for XHWSHXWXPX (DO3A10CM on N-terminus; AA1 Ambz4; AA6 Darg; AA8 Bpa4; AA10 azaGly-NH2) [BRU-2737]
Reply | 1.4 µM

Ask | Return EC50 (reported value) for this binder: {DO3A10CM″}-[Sar][His(pime)]WSH[dR]W[Bpa]P[azaGly]-NH2 [BRU-2759]
Reply | 10 µM
